Test system: toxicity of norepinephrine
assay.notes: In vivo adrenolytic activity: protection against norepinephrine-induced death in rats
condition.description: Rattus norvegicus, po, 0.5 h, 50 mg/kg p.o., 30 min before i.v. norepinephrine 0.4 mg/kg
Method: Norepinephrine injected intravenously in high doses causes the death of 100% of the animals within 15 minutes of being injected. The cause of death is pulmonary edema due to the arterial hypertension induced by stimulation of the adrenergic receptors. The oral administration of α-adrenolytic substances before-hand enables the toxicity of norepinephrine to be reduced. […]
Counter-ions that a name gives are not always drawn.
recorded.metric: responders at 50 mg/kg (%)

- compound: "CC(=O)Oc1cc(C(C)C)c(OCCN(C)C)cc1C [Thymoxamine, reference compound]"
  measured.number: 80
- compound: "Cc1cc(OCCN2CCCC2)c(C(C)C)cc1O [B 1058, hydrochloride]"
  measured.number: 90
- compound: "CCCCCC(=O)Oc1cc(C(C)C)c(OCCN2CCCC2)cc1C [B 1131]"
  measured.number: 60
- compound: "Cc1ccc(C(C)C)c(OCCN2CCCC2)c1 [B 1007, hydrochloride]"
  measured.number: 60
- compound: "CCCC(=O)Oc1cc(C(C)C)c(OCCN2CCCC2)cc1C [B 1132, hydrochloride]"
  measured.number: 90
